pKi: −log10 of the molar value.
The following are reported pKi results, target or system Norepinephrine transporter (Rattus norvegicus, UniProt Q9WTR4).
metric: pKi

FC(F)(F)c1ccccc1OC(c1cccc(I)c1)C1CNCCO1 (racemic) = 7.00

(I) Cc1ccccc1OC(c1cccc(I)c1)C1CNCCO1 (racemic)
(II) Cc1ccccc1OC(c1ccc(I)s1)C1CNCCO1 (racemic)
Of the two listed items, which has the higher pKi? First: I Second: II Lab note: record the label of whichever item you select.
I
(I: 7.56, II: 7.14)

(1) O=[N+]([O-])c1ccccc1COC(c1cccc(I)c1)C1CNCCO1 (racemic)
(2) CCOc1ccccc1OC(c1cccc(I)c1)C1CNCCO1 (racemic)
Task for the reader: decide whether 1 or 2 has the larger pKi. Give the label under which the chosen entry appears.
2
(2: 7.55, 1: 7.15)
